B1: EHEE_rd4_0726 (parent)
chain: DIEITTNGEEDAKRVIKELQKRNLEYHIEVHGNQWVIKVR

- Variants of: B1
- assay notes: folding stability dG (cDNA display proteolysis); higher = more stable
- setup conditions: PBS, room temperature
Everything with folding stability dG lower than 1 kcal/mol is rule not met; everything else, including exactly 1 kcal/mol, is rule met.

# check: folding stability dG of T5E is greater than or equal to 1 kcal/mol
rule met

Attribution: the MegaScale stability set (Tsuboyama et al. 2023)
